# tested_system: PDE4B (Homo sapiens, UniProt Q07343)
# Sequence (Q07343 whole entry, species assumed): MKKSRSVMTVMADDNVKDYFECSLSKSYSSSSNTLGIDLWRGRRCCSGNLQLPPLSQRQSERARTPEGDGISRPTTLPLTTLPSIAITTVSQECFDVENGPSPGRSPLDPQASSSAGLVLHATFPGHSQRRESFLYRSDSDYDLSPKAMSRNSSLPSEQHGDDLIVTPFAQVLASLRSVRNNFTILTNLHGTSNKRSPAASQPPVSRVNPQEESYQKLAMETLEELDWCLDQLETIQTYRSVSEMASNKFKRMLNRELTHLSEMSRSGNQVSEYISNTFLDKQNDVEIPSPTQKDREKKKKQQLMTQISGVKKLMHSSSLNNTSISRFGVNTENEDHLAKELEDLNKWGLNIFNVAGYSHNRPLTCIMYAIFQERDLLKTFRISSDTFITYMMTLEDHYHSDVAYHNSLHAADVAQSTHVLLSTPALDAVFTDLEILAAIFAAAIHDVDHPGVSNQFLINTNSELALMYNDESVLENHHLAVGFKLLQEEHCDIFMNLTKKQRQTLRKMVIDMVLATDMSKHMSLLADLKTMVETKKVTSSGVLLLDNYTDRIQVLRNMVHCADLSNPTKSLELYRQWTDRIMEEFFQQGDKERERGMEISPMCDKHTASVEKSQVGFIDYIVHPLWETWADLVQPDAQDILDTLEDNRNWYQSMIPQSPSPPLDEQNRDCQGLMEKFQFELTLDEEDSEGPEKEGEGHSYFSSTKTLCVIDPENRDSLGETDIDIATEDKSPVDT
# assay_protocol: Scintillation Proximity Assay (SPA) of PDE4B enzymatic activity ([H3]-cAMP cleavage)
# Assay type: biochemical
# measurement_setup: test substance 1 μM; one-hour incubation with [H3]-cAMP and PDE4B at 30° C.
Counter-ions that a name gives are not always drawn.
measured_property: inhibition at 1 µM (%)

INSERT INTO results (compound, tested_system, value_units, endpoint_result) VALUES
  ('CC(C)[C@H](CO)Nc1nc(N2CCN(c3nccs3)CC2)nc2c1[S+]([O-])CC2 (stereo partly drawn)', 'PDE4B (Homo sapiens, UniProt Q07343)', '%', 90),
  ('[O-][S+]1CCc2nc(N3CCN(c4ccc(Cl)cn4)CC3)nc(NC3(CO)CC3)c21 (stereo not drawn)', 'PDE4B (Homo sapiens, UniProt Q07343)', '%', 95),
  ('[O-][S+]1CCc2nc(N3CCN(c4ccnnc4)CC3)nc(Nc3cccc(F)c3)c21 (stereo not drawn)', 'PDE4B (Homo sapiens, UniProt Q07343)', '%', 96),
  ('CCN1CCc2ncc(N3CCN(c4nc5c(c(Nc6cccc(F)c6)n4)[S+]([O-])CC5)CC3)nc2CC1 (stereo not drawn) [Example 109, trifluoroacetate]', 'PDE4B (Homo sapiens, UniProt Q07343)', '%', 96),
  ('CC(C)[C@H](CO)Nc1nc(N2CCN(c3ccncc3)CC2)nc2c1[S+]([O-])CC2 (stereo partly drawn) [Example 32, trifluoroacetate]', 'PDE4B (Homo sapiens, UniProt Q07343)', '%', 77),
  ('[O-][S+]1CCc2nc(N3CCN(c4ccncc4)CC3)nc(Nc3cccc(F)c3)c21 (stereo not drawn)', 'PDE4B (Homo sapiens, UniProt Q07343)', '%', 96),
  ('CCN1CCc2ncc(N3CCN(c4nc5c(c(N[C@@H](CO)C(C)C)n4)[S+]([O-])CC5)CC3)nc2CC1 (stereo partly drawn)', 'PDE4B (Homo sapiens, UniProt Q07343)', '%', 94),
  ('[O-][S+]1CCc2nc(N3CCN(c4nccs4)CC3)nc(Nc3cccc(F)c3)c21 (stereo not drawn)', 'PDE4B (Homo sapiens, UniProt Q07343)', '%', 94),
  ('CC(C)[C@H](CO)Nc1nc(N2CCN(c3ccnnc3N(C)C)CC2)nc2c1[S+]([O-])CC2 (stereo partly drawn) [Example 36, trifluoroacetate]', 'PDE4B (Homo sapiens, UniProt Q07343)', '%', 94),
  ('CC(C)[C@H](CO)Nc1nc(N2CCN(c3noc4ccccc34)CC2)nc2c1[S+]([O-])CC2 (stereo partly drawn)', 'PDE4B (Homo sapiens, UniProt Q07343)', '%', 95),
  ('[O-][S+]1CCc2nc(N3CCN(c4nc5ccccc5o4)CC3)nc(NC3CCOCC3)c21 (stereo not drawn)', 'PDE4B (Homo sapiens, UniProt Q07343)', '%', 96),
  ('[O-][S+]1CCc2nc(N3CCN(c4ccncc4)CC3)nc(NC3(CO)CC3)c21 (stereo not drawn) [Example 58, trifluoroacetate]', 'PDE4B (Homo sapiens, UniProt Q07343)', '%', 91),
  ('CN1C[C@@H](Nc2nc(N3CCN(c4ccncn4)CC3)nc3c2[S+]([O-])CC3)CCC1=O (stereo partly drawn)', 'PDE4B (Homo sapiens, UniProt Q07343)', '%', 96),
  ('[O-][S+]1CCc2nc(N3CCN(c4cc(Cl)nnc4O)CC3)nc(Nc3cccc(F)c3)c21 (stereo not drawn)', 'PDE4B (Homo sapiens, UniProt Q07343)', '%', 95),
  ('[O-][S+]1CCc2nc(N3CCN(c4ccncn4)CC3)nc(Nc3cccc(F)c3)c21 (stereo not drawn) [Example 113, trifluoroacetate]', 'PDE4B (Homo sapiens, UniProt Q07343)', '%', 96);
